- System: SK-HEP1
- Experiment Summary: Cytotoxicity against human SKHEP1 cells assessed as decrease in cell viability after 72 hrs by SRB assay
- Format: functional, cell-based
- Conditions: SK-HEP1, 72 h
pIC50: −log10 of the molar value.
Test Readout: pIC50

Nc1nc(=O)n([C@@H]2C(F)=C(CO)[C@@H](O)[C@H]2O)cc1Cl: < 4.00
O=c1nc(O)c(F)cn1[C@@H]1C(F)=C(CO)[C@@H](O)[C@H]1O: 4.15
CC(C)OC(=O)[C@H](C)N[P@](=O)(OCC1=C(F)[C@@H](n2cnc3c(N)ncnc32)[C@H](O)[C@@H]1O)Oc1ccccc1: 4.62
Nc1nc(=O)n([C@@H]2C(F)=C(CO)[C@@H](O)[C@H]2O)cc1I: < 4.00
Nc1nc(O)c2ncn([C@@H]3C(F)=C(CO)[C@@H](O)[C@H]3O)c2n1: < 4.00
OCC1=C(F)[C@@H](n2cnc3c(NC4CC4)ncnc32)[C@H](O)[C@@H]1O: < 4.00
Nc1nc(N)c2ncn([C@@H]3C(F)=C(CO)[C@@H](O)[C@H]3O)c2n1: < 4.00
Nc1nc(NC2CC2)c2ncn([C@@H]3C(F)=C(CO)[C@@H](O)[C@H]3O)c2n1: < 4.00
Nc1nc(=O)n([C@@H]2C(F)=C(CO)[C@@H](O)[C@H]2O)cc1F: < 4.00
